Origin of measurements: patent US20210198277A1

biological target: EHMT2 (Homo sapiens, UniProt Q96KQ7); construct: host or cells: MDA-MB-231; test: MDA-MB-231 H3K9me2 in-cell Western assay (EHMT2 ICW); format: cell-based; settings: Table II; MDA-MB-231 H3K9me2 in-cell Western; read-out: EHMT2 ICW (IC50 μM)
Sequence (Q96KQ7 whole entry): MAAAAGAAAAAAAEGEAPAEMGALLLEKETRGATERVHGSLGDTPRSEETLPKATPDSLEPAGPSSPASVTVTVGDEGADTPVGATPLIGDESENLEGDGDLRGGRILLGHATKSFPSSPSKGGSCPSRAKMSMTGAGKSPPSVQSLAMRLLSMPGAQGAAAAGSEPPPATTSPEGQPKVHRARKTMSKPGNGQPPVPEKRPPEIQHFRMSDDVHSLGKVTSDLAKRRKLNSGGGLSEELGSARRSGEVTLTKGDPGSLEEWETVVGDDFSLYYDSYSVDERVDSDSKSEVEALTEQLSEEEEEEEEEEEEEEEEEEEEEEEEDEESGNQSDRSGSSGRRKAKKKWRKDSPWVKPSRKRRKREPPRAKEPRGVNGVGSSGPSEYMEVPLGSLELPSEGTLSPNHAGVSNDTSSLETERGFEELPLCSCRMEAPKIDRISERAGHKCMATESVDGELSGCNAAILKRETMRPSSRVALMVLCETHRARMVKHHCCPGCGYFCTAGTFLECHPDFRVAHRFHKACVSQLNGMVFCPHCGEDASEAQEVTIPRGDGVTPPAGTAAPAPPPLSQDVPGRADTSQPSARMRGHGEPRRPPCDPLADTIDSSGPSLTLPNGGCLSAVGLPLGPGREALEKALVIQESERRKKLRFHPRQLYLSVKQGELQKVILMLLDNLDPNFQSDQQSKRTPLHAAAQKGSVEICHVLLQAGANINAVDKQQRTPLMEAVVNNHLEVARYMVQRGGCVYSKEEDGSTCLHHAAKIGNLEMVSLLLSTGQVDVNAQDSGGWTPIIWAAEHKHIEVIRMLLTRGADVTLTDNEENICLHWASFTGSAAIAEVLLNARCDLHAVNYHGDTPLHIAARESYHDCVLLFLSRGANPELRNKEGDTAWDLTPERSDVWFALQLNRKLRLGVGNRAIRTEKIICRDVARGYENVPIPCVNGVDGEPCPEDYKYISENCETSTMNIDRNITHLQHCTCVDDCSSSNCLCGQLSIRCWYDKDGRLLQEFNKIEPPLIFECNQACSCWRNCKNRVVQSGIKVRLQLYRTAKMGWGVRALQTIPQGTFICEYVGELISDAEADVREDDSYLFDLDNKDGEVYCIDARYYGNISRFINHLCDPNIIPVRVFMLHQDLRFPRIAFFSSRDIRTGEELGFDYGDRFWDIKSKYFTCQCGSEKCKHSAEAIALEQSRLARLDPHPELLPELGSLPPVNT
Where a name gives a salt, the structure may show the parent alone.
// IC50 lookup, one value per entry
measured.property: IC50

1. COc1ccc(Nc2cncc(NCC3CCN(C(C)=O)CC3)c2)cc1OCCCN1CCCC1 [Compound 184]    > 10 µM
2. COc1ccc(Nc2nccc(N3CC(C(N)=O)C3)n2)cc1OCCCN1CCCC1 [Compound 179]    > 10 µM
3. CNc1nc(Nc2ccc(OC)c(OCCCN3CCCC3)c2)nc(C)c1F [Compound 236]    0.1 to 1 µM
4. COc1ccc(Nc2ccnc(NCC3CCNCC3)n2)cc1OCCCN1CCCC1 [Compound 7, hydrochloride]    1 to 10 µM
5. CNc1cc(C)nc(Nc2ccc(OC)c(OCCCN3CCCC3)c2)n1 [Compound 205]    < 0.1 µM
6. COc1ccc(Nc2nccc(NCc3ccc4[nH]ncc4c3)n2)cc1OCCCN1CCCC1 [Compound 164]    > 10 µM
7. CNC(=O)CNc1ccnc(Nc2ccc(OC)c(OCCCN3CCCC3)c2)n1 [Compound 41]    1 to 10 µM
8. CNc1nccc(Nc2ccc(OC)c(OCCCN3CCCC3)c2)n1 [Compound 231]    0.1 to 1 µM
9. COc1ccc(Nc2nccc(N3CCc4[nH]ncc4C3)n2)cc1OCCCN1CCCC1 [Compound 128]    > 10 µM
10. COc1ccc(Nc2nccc(NCCOc3ccccc3)n2)cc1OCCCN1CCCC1 [Compound 40]    1 to 10 µM
11. COc1ccc(Nc2nccc(NCC3CCN(C(C)=O)CC3)n2)cc1OCCC(=O)N1CCCC1 [Compound 166]    > 10 µM
12. COc1ccc(Nc2nccc(NCC3CCOCC3)n2)cc1OC1CC2(C1)CN(C)C2 [Compound 243]    > 10 µM
13. COc1ccc(OCCCN2CCCC2)cc1Nc1nccc(NCC2CCOCC2)n1 [Compound 227]    > 10 µM
14. COc1ccc(Nc2nccc(N3CCCNC(=O)C3)n2)cc1OCCCN1CCCC1 [Compound 133]    > 10 µM
15. CNc1ccnc(Nc2ccc(OC)c(OCCCN3CC(F)C3)c2)n1 [Compound 230]    1 to 10 µM
16. COc1ccc(Nc2nccc(NC3CCN(C(C)=O)CC3)n2)cc1OCCCN1CCCC1 [Compound 54]    1 to 10 µM
17. COc1ccc(Nc2ccnc3[nH]ccc23)cc1OCCCN1CCCC1 [Compound 250]    > 10 µM
18. COc1ccc(Nc2nccc(NCC(=O)N3CCOCC3)n2)cc1OCCCN1CCCC1 [Compound 51]    1 to 10 µM

* * *

molecular target: EHMT1 (Homo sapiens); assay: EHMT1 enzyme assay on peptide substrate (EHMT1 PEP); format: biochemical; settings: Table II; read-out: EHMT1 PEP (IC50 μM)
Sequence (Q9H9B1 whole entry, species assumed): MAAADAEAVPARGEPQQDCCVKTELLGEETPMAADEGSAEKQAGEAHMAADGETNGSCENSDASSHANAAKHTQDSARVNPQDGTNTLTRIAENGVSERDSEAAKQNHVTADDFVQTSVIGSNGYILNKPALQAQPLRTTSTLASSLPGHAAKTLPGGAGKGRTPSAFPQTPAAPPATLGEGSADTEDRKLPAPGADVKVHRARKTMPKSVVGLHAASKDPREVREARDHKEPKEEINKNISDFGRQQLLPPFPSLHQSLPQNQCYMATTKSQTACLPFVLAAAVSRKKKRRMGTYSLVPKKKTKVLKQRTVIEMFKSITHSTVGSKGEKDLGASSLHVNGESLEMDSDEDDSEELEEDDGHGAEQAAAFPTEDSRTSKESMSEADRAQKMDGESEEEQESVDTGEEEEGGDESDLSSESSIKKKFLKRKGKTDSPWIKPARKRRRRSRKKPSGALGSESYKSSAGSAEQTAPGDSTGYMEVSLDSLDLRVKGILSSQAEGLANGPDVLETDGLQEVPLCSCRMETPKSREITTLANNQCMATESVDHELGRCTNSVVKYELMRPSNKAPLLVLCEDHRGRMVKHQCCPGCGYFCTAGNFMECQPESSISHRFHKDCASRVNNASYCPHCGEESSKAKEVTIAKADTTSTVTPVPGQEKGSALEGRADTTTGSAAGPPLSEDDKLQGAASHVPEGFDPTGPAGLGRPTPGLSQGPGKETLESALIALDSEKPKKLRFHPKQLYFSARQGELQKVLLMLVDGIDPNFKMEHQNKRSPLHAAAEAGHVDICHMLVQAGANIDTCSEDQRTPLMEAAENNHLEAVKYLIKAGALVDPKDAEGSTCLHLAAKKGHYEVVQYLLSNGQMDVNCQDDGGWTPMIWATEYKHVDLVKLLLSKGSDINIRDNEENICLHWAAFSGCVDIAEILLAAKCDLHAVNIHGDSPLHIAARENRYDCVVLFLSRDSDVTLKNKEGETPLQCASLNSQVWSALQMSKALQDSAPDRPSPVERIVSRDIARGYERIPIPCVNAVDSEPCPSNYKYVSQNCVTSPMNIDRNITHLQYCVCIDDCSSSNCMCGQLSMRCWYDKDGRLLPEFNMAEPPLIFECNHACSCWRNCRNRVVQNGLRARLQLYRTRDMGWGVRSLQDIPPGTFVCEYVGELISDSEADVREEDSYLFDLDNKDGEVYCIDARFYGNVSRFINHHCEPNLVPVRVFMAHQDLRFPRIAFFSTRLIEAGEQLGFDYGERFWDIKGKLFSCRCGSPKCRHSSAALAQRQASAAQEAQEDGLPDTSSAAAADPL
measured.property: IC50

1. CCCCNc1ccnc(NCCCN2CCCC2)n1    > 10 µM
2. COc1ccc(Nc2ccnc(OCC3CCN(C(C)=O)CC3)c2)cc1OCCCN1CCCC1    1 to 10 µM
3. CCCCNc1ccnc(NCCCC)n1    > 10 µM
4. COc1ccc(Nc2nccc(NCc3ccccc3)n2)cc1OCCCN1CCCC1    0.1 to 1 µM
5. COc1cnc(Nc2cc(NCC3CCN(C(C)=O)CC3)ccn2)cc1OCCCN1CCCC1    0.1 to 1 µM
6. COc1cccc(CNc2ccnc(Nc3ccc(OC)c(OCCCN4CCCC4)c3)n2)c1    0.1 to 1 µM
7. CCCCNc1ncc(C#N)c(NCC2CCNCC2)n1    > 10 µM
8. CCCCNc1nccc(NCC2CCN(C(C)=O)CC2)n1    > 10 µM
9. COc1ccc(Nc2cc(CNC3CCOCC3)n(C)n2)cc1OCCCN1CCCC1    > 10 µM

* * *

molecular target: EHMT2 (Homo sapiens, UniProt Q96KQ7); construct: host or cells: MDA-MB-231; test: MDA-MB-231 H3K9me2 in-cell Western assay (EHMT2 ICW); format: cell-based; settings: Table VI; read-out: EHMT2 ICW IC50
measured.property: IC50

1. CCc1cc(NC)nc(Nc2ccc(OC)c(OC[C@@H]3CCN(CC)C3)c2)n1 [Compound 671]    0.1 to 1 µM
2. COc1cc2c(C#CCN3CCOCC3)cc(C)nc2cc1OCCCN1CCCC1 [Compound 763]    1 to 10 µM
3. CCN1CC(N(C)Cc2cc(Nc3nc(C)cc(NC)n3)ccc2OC)C1 [Compound 650]    > 10 µM
4. COc1cnc(Nc2cccc3nncn23)nc1OCCCN1CCCC1 [Compound 656]    > 10 µM
5. CNc1nc(C)c2cc(OC)c(OCCCN3CCCC3)cc2n1 [Compound 737]    > 10 µM
6. CNc1cc(C)c2cc(OC)c(OC[C@H](O)CN3CCC3)cc2n1 [Compound 1028]    0.1 to 1 µM
7. CNc1ccnc(Nc2ccc(OC)c(OCC(C)CN3CCC3)c2)n1 (stereo not drawn) [Compound 1008]    0.1 to 1 µM
8. CNc1cc(C2CCOCC2)c2cc(OC)c(OC[C@@H]3CCNC3)cc2n1 [Compound 802]    1 to 10 µM
9. COc1cnc(Nc2nn(C)c3cnccc23)cc1OCCCN1CCCC1 [Compound 795]    > 10 µM

* * *

molecular target: EHMT2 (Homo sapiens); construct: host or cells: MDA-MB-231; experiment: MDA-MB-231 H3K9me2 in-cell Western assay (EHMT2 ICW); type: cell-based; settings: Table VI; read-out: EHMT2 ICW IC50
measured.property: IC50

1) CCN1CC(COc2cc3nc(C)nc(C4CCN(C(C)C)CC4)c3cc2OC)C1 [Compound 665]    > 10 µM
2) CNc1cc(C)nc(Nc2ccc(OC)c(C#CC3CCCN3)c2)n1 (stereo not drawn) [Compound 846]    0.1 to 1 µM
3) CNc1ccnc(Nc2ccc(OC)c(OC[C@@H]3CN(C)CCO3)c2)n1 [Compound 936]    > 10 µM
4) CNc1cc(C)nc(Nc2ccc(OC)c(CNCCN3CC[C@@H](F)C3)c2)n1 [Compound 1030]    0.1 to 1 µM
5) COc1cc(N(C)C2CCOCC2)ncc1OCC1CCNC1 (stereo not drawn) [Compound 808]    > 10 µM
6) COc1cc2c(C3CCN(C)CC3)cc(N3CCCC3)nc2cc1OCCCN1CCCC1 [Compound 625]    0.1 to 1 µM
7) CNc1cc(C)nc(Nc2ccc(CNC(=O)c3ccccc3)c(OC)c2)n1 [Compound 876]    > 10 µM
8) CNc1nc(C2CCN(C3CCOC3)CC2)c2cc(OC)c(OCCCN3CCCC3)cc2n1 (stereo not drawn) [Compound 759]    1 to 10 µM
9) CCN1CC[C@@H](COc2cc(Nc3nc(C)cc(NCC4CCOCC4)n3)ccc2OC)C1 [Compound 667]    0.1 to 1 µM
10) COc1cc2c(C3CCCN(C)C3)nc(C)nc2cc1OCCCN1CCCC1 (stereo not drawn) [Compound 743]    > 10 µM
11) COc1cc2c(C3CCOCC3)cc(N3CCCCC3)nc2cc1OCCCN1CCCC1 [Compound 824]    1 to 10 µM
12) COc1cc2c(C3CCN(C)CC3)nc(C)nc2cc1OCCCN1CCCC1 [Compound 658]    > 10 µM
13) CNc1cc(C)nc(Nc2cnc(OC)c(OC[C@@H]3CCNC3)c2)n1 [Compound 641]    0.1 to 1 µM
14) CNc1ccnc(Nc2ccc(OC)c(OC[C@@H](CN3CCCC3)OC)c2)n1 [Compound 919]    > 10 µM
15) CNc1cc(CC2CCOCC2)c2cc(OC)c(OCCCN3CCCC3)cc2n1 [Compound 823]    0.1 to 1 µM
16) CNc1cc(C)nc(Nc2cc(OCCCN3CCCC3)c3[nH]nnc3c2)n1 [Compound 624]    1 to 10 µM
17) CCN1CCC(N(C)Cc2cc(Nc3nc(C)cc(NC)n3)ccc2OC)C1 (stereo not drawn) [Compound 651]    > 10 µM
18) CNCCNC(C)c1cc(Nc2nc(C)cc(NC)n2)ccc1OC (stereo not drawn) [Compound 1036]    1 to 10 µM
19) CNc1ccnc(Nc2ccc(OC)c(CNCCN3CCC3)c2)n1 [Compound 1033]    0.1 to 1 µM
20) CCN1CC(COc2cc3nc(C)cc(C4CCN(C)CC4)c3cc2OC)C1 [Compound 660]    1 to 10 µM
21) CNc1cc(C)nc(Nc2ccc(OC)c(OC[C@H](O)CN3CC(F)C3)c2)n1 [Compound 986]    1 to 10 µM
22) CCN1CCC(O)(COc2cc(Nc3nccc(NC)n3)ccc2OC)C1 (stereo not drawn) [Compound 1007]    > 10 µM
23) CNc1cc(C)nc(Nc2ccc(OC)c(CNCCN(C)C)c2)n1 [Compound 990]    0.1 to 1 µM
24) CNC(=O)N1CC(CNc2cc(C)nc(Nc3cnc(OC)c(OCCCN4CCCC4)c3)n2)C1 [Compound 888]    > 10 µM
25) CNc1nc(C2CCN(C)C2)c2cc(OC)c(OCCCN3CCCC3)cc2n1 (stereo not drawn) [Compound 748]    > 10 µM
26) CNc1cc(C2CCN(C3CCOCC3)CC2)c2cc(OC)c(OCCCN3CCCC3)cc2n1 [Compound 757]    < 0.1 µM
27) CCN1CC[C@@H](COc2cc3nc(C)cc(C4CCN(C)CC4)c3cc2OC)C1 [Compound 662]    0.1 to 1 µM
28) CCN1CC(COc2cc3nc(C)cc(C4CCN(C(C)C)CC4)c3cc2OC)C1 [Compound 661]    1 to 10 µM
29) COc1cc2c(C)cc(N3CCOCC3)nc2cc1OCCCN1CCCC1 [Compound 761]    1 to 10 µM
30) COc1ccc(Nc2nc(C)cc(NCCS(=O)(=O)N(C)C)n2)cc1OCCCN1CCCC1 [Compound 893]    0.1 to 1 µM
31) CNc1cc(C)nc(Nc2c[nH]c(=O)c(OCCCN3CCCC3)c2)n1 [Compound 621]    > 10 µM
32) CNc1cc(C)nc(Nc2cnc(OC)c(OC[C@H](O)CN3CCC3)c2)n1 [Compound 963]    0.1 to 1 µM
33) CNc1cc(C)nc(Nc2ccc(OC)c(C#CC3CCCN3C)c2)n1 (stereo not drawn) [Compound 848]    0.1 to 1 µM
34) CNc1ccnc(Nc2ccc(OC)c(OC[C@@H]3CNCCO3)c2)n1 [Compound 938]    > 10 µM
35) CCN1CCO[C@@H](COc2cc(Nc3nccc(NC)n3)ccc2OC)C1 [Compound 932]    > 10 µM
36) CCc1nc(NC2CCNCC2)ncc1OCC1CCN(C)C1 (stereo not drawn) [Compound 630]    > 10 µM
